# tgt: ΔF508-CFTR (Homo sapiens, UniProt P13569, DEL508-508)
# Construct: expressed in transfected cells
# Sequence (P13569 with tags, fused parts or gaps DEL508-508): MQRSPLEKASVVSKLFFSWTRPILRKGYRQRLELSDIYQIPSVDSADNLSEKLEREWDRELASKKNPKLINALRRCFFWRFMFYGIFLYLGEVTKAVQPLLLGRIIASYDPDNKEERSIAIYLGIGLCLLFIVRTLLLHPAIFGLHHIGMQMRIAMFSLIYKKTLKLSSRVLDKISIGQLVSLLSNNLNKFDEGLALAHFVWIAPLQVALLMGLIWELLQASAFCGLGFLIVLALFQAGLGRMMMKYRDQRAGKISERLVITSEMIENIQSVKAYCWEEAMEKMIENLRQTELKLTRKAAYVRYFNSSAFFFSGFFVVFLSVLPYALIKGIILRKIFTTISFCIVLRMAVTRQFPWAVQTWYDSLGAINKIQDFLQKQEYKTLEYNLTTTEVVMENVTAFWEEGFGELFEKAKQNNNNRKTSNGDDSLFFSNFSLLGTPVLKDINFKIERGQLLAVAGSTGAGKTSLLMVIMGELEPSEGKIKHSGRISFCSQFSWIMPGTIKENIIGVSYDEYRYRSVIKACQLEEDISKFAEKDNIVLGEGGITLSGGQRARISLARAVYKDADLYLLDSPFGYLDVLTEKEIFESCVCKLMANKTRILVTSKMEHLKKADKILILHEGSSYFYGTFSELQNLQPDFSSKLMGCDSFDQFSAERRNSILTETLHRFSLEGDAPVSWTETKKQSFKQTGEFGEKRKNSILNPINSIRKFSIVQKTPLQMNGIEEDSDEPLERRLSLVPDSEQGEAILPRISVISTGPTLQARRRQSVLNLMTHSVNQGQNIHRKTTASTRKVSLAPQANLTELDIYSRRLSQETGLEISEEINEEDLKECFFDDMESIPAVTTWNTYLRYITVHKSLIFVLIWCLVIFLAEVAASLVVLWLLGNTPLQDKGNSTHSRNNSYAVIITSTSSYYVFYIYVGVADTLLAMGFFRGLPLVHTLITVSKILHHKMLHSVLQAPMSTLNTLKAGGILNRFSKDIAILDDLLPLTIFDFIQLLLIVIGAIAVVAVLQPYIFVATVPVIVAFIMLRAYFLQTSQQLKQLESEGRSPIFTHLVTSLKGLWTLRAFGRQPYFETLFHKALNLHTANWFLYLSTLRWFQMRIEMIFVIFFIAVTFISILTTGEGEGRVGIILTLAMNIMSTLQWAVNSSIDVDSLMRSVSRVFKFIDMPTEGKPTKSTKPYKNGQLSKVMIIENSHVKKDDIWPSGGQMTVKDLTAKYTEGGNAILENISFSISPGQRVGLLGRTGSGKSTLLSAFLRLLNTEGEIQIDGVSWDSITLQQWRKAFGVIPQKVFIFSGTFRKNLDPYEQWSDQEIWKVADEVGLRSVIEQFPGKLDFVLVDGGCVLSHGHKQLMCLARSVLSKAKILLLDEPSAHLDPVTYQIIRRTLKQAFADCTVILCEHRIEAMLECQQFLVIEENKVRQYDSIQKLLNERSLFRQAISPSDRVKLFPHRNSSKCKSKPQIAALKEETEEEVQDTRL
# method: Membrane potential optical assay for potentiators of ΔF508-CFTR (FLIPR III, voltage sensing dyes)
# Format: cell-based
# test.parameters: NIH3T3; 100% efficacy is the maximum response obtained with 4-methyl-2-(5-phenyl-1H-pyrazol-3-yl)phenol; ΔF508 CFTR NIH 3T3 cells
endpoint.label: Emax

Request: Any idea what its Emax is? The compound is CC1(c2cc(F)c(NC(=O)[C@H]3CNc4ccccc4O3)cc2O)CCCCC1
Result: 25 to 100%

Request: Now consider N#Cc1ccc2c(c1)NCC(C(=O)Nc1cc(O)c(C3CCCC3)cc1CN1CCNCC1)O2 (stereo not shown) .
Result: 25 to 100%

Request: Now consider Cc1cc(C2CCCC2)c(O)cc1NC(=O)[C@H]1CNc2cc(C#N)ccc2O1 .
Result: 25 to 100%

Request: Now consider O=C(Nc1cc(O)c(C2CCCC2)cc1C(F)(F)F)[C@@H]1CNc2cc(OC(F)(F)F)ccc2O1 .
Result: 25 to 100%

Request: Now consider CCc1ccc(NC(=O)C2CNc3cc(OC(F)(F)F)ccc3O2)c(C#CCN(C)C)c1 (stereo not shown) .
Result: > 100%

Request: Now consider CC1(c2cc(F)c(NC(=O)C3CNc4ccccc4O3)cc2O)CCCCC1 (stereo not shown) .
Result: 25 to 100%

Request: Now consider Cc1ccc(NC(=O)C2CNc3cc(OC(F)(F)F)ccc3O2)c(CCN2CCOCC2)c1 (stereo not shown) .
Result: 25 to 100%

Request: Now consider Cc1cc(CN2CCC(C)CC2)c(NC(=O)C2CNc3cc(OC(F)(F)F)ccc3O2)cc1O (stereo not shown) .
Result: > 100%

Request: Now consider N#Cc1cc(C2CCCC2)c(O)cc1NC(=O)[C@@H]1CNc2ccc(F)cc2O1 .
Result: 25 to 100%

Request: Now consider CC1(c2cc(F)c(NC(=O)C3CNc4ccc(F)cc4O3)cc2O)CCCCC1 (stereo not shown) .
Result: 25 to 100%

Request: Now consider CC(C)(C)c1ccc(NC(=O)[C@@H]2CNc3ccc(F)cc3O2)cc1O .
Result: 25 to 100%

Request: Now consider CN(C)CC#Cc1cc(C2CCCC2)c(O)cc1NC(=O)[C@H]1CNc2cc(OC(F)(F)F)ccc2O1 .
Result: > 100%

Request: Now consider O=C(Nc1cc(O)c(C2CCCC2)cc1C(F)(F)F)[C@H]1CNc2cc(F)ccc2O1 .
Result: 25 to 100%

Request: Now consider N#Cc1ccc2c(c1)NCC(C(=O)Nc1cc(O)c(C3CCCC3)cc1C(F)(F)F)O2 (stereo not shown) .
Result: 25 to 100%

Request: Now consider Cc1cc2c(cc1F)NCC(C(=O)Nc1cc(O)c(C3CCCC3)cc1C#CCN(C)C)O2 (stereo not shown) .
Result: 25 to 100%

Request: Now consider CN(C)CC#Cc1cc(C2CCCC2)c(O)cc1NC(=O)C1CNc2cc(OC(F)(F)F)ccc2O1 (stereo not shown) .
Result: > 100%

====

I'd be grateful if you could share measured EC50 for these entries.
# tgt: ΔF508-CFTR (Homo sapiens, UniProt P13569, DEL508-508)
# method: Membrane potential optical assay for potentiators of ΔF508-CFTR (FLIPR III, voltage sensing dyes)
# test.parameters: temperature-corrected ΔF508 CFTR NIH 3T3 cells, forskolin activation

Request: Any idea what its EC50 is? The compound is N#Cc1cc(C2CCCC2)c(O)cc1NC(=O)[C@@H]1CNc2ccc(F)cc2O1 [Compound 50]
Result: < 5 µM

Request: Now consider CN(C)CC#Cc1cc(C2CCCC2)ccc1NC(=O)C1CNc2cc(C#N)ccc2O1 (stereo not drawn) [Compound 110] .
Result: < 5 µM

Request: Now consider CN(C)CC#Cc1cc(N2C3CCC2CC3)ccc1NC(=O)C1CNc2cc(C#N)ccc2O1 (stereo not drawn) [Compound 43] .
Result: < 5 µM

====

# tgt: ΔF508-CFTR (Homo sapiens, UniProt P13569, DEL508-508)
# Construct: expressed in transfected cells
# method: Membrane potential optical assay for potentiators of ΔF508-CFTR (FLIPR III, voltage sensing dyes)
# Type: cell-based
# test.parameters: NIH3T3; 100% efficacy is the maximum response obtained with 4-methyl-2-(5-phenyl-1H-pyrazol-3-yl)phenol; ΔF508 CFTR NIH 3T3 cells
endpoint.label: Emax

Request: Any idea what its Emax is? The compound is Cc1ccc(NC(=O)C2CNc3cc(OC(F)(F)F)ccc3O2)c(C#CCN(C)C)n1 (stereo not shown)
Result: 25 to 100%

Request: Now consider COc1cc(NC(=O)C2CNc3ccccc3O2)ccc1-n1c(C)ccc1C (stereo not shown) .
Result: 25 to 100%

Request: Now consider CCc1cc(F)c(NC(=O)C2CNc3ccc(F)cc3O2)cc1O (stereo not shown) .
Result: 25 to 100%

Request: Now consider O=C(O)Cc1cc(C2CCCC2)c(O)cc1NC(=O)C1CNc2cc(OC(F)(F)F)ccc2O1 (stereo not shown) .
Result: > 100%

====

# tgt: ΔF508-CFTR (Homo sapiens, UniProt P13569, DEL508-508)
# Construct: expressed in transfected cells
# method: Membrane potential optical assay for potentiators of ΔF508-CFTR (FLIPR III, voltage sensing dyes)
# Format: cell-based
# test.parameters: NIH3T3; 100% efficacy is the maximum response obtained with 4-methyl-2-(5-phenyl-1H-pyrazol-3-yl)phenol; ΔF508 CFTR NIH 3T3 cells
I'd be grateful if you could share measured Emax for these entries.

Request: Any idea what its Emax is? The compound is O=C(Nc1ccc(OC(F)(F)F)c(O)c1)C1CNc2ccc(F)cc2O1 (stereo not shown) [Compound 47]
Result: 25 to 100%

Request: Now consider O=C(Nc1ccc(C2CC2)c(O)c1)C1CNc2ccccc2O1 (stereo not shown) [Compound 27] .
Result: 25 to 100%

Request: Now consider Cc1cc(C)c(NC(=O)C2CNc3cc(OC(F)(F)F)ccc3O2)c(C#CCN(C)C)c1 (stereo not shown) [Compound 15] .
Result: 25 to 100%

Request: Now consider COc1cc(NC(=O)C2CNc3ccc(F)cc3O2)c(Cl)cc1C(C)(C)O (stereo not shown) [Compound 82] .
Result: 25 to 100%

Request: Now consider Cc1cc(C#CCN(C)C)c(NC(=O)C2CNc3ccccc3O2)cc1F (stereo not shown) [Compound 36] .
Result: 25 to 100%

Request: Now consider Cc1ccc(NC(=O)C2CNc3cc(OC(F)(F)F)ccc3O2)c(C#CCN2CCNC(=O)C2)c1 (stereo not shown) [Compound 63] .
Result: 25 to 100%

Request: Now consider Cc1cc(F)c(NC(=O)C2CNc3ccccc3O2)cc1O (stereo not shown) [Compound 55] .
Result: 25 to 100%

Request: Now consider Cc1ccc(NC(=O)C2CNc3cc(OC(F)(F)F)ccc3O2)c(C#CCN2CCC(N)CC2)c1 (stereo not shown) [Compound 101] .
Result: < 25%

Request: Now consider Cc1cc(C2CCCC2)c(O)cc1NC(=O)C1CNc2ccc(F)cc2O1 (stereo not shown) [Compound 21] .
Result: 25 to 100%

Request: Now consider CC(C)(C)c1ccc(NC(=O)C2CNc3ccc(C(F)(F)F)cc3O2)cc1O (stereo not shown) [Compound 70] .
Result: 25 to 100%

Request: Now consider Cc1ccc(NC(=O)C2CNc3cc(OC(F)(F)F)ccc3O2)c(C#CCN2CCOCC2)c1 (stereo not shown) [Compound 100] .
Result: > 100%

Request: Now consider CC1CCN(Cc2cc(C3CCCC3)c(O)cc2NC(=O)C2CNc3ccccc3O2)CC1 (stereo not shown) [Compound 46] .
Result: > 100%

Request: Now consider Cc1ccc(NC(=O)C2CNc3cc(OC(F)(F)F)ccc3O2)c(C#CCN2CCC(O)CC2)c1 (stereo not shown) [Compound 64] .
Result: 25 to 100%

Request: Now consider Cc1ccc2c(c1)NCC(C(=O)Nc1cc(O)c(C3(C)CCCCC3)cc1F)O2 (stereo not shown) [Compound 97] .
Result: 25 to 100%

Request: Now consider CS(=O)(=O)c1cc(C2CCCC2)c(O)cc1NC(=O)C1CNc2cc(OC(F)(F)F)ccc2O1 (stereo not shown) [Compound 105] .
Result: > 100%

Request: Now consider CC(C)Oc1ccc(NC(=O)C2CNc3ccc(F)cc3O2)cc1O (stereo not shown) [Compound 42] .
Result: < 25%

Request: Now consider CC(C)(C)c1ccc(NC(=O)C2CNc3ccccc3[S+]2[O-])cc1O (stereo not shown) [Compound 125] .
Result: < 25%

Request: Now consider CN(C)CC#Cc1cc(C2CCCC2)c(O)cc1NC(=O)[C@@H]1CNc2cc(OC(F)(F)F)ccc2O1 [Compound 65] .
Result: > 100%

Request: Now consider N#Cc1ccc2c(c1)NCC(C(=O)Nc1cc(O)c(C3CCCC3)cc1C1CCNCC1)O2 (stereo not shown) [Compound 113] .
Result: < 25%

Request: Now consider CN(C)CC#Cc1cc(C2CCCC2)c(O)cc1NC(=O)C1CNc2cc(C#N)ccc2O1 (stereo not shown) [Compound 34] .
Result: 25 to 100%

Request: Now consider CN(C)CCCc1cc(C2CCCC2)c(O)cc1NC(=O)C1CNc2cc(OC(F)(F)F)ccc2O1 (stereo not shown) [Compound 38] .
Result: 25 to 100%

Request: Now consider O=C(O)CCc1cc(C2CCCC2)c(O)cc1NC(=O)C1CNc2cc(OC(F)(F)F)ccc2O1 (stereo not shown) [Compound 16] .
Result: 25 to 100%

Request: Now consider CC(C)(C)c1ccc(NC(=O)C2CNc3ccccc3S2)cc1O (stereo not shown) [Compound 120] .
Result: 25 to 100%

Request: Now consider Cc1ccc(NC(=O)C2CNc3cc(OC(F)(F)F)ccc3O2)c(C#CCN2CCCC2)c1 (stereo not shown) [Compound 73] .
Result: 25 to 100%

Request: Now consider COc1cc(NC(=O)C2CNc3cc(OC(F)(F)F)ccc3O2)c(C#CCN(C)C)cc1C1CCCC1 (stereo not shown) [Compound 95] .
Result: > 100%

Request: Now consider CC(C)CC#Cc1cc(C2CCCC2)c(O)cc1NC(=O)C1CNc2cc(OC(F)(F)F)ccc2O1 (stereo not shown) [Compound 53] .
Result: 25 to 100%

Request: Now consider CC(C)(C)c1ccc(NC(=O)C2CNc3cc(F)c(F)cc3O2)cc1O (stereo not shown) [Compound 49] .
Result: 25 to 100%

Request: Now consider CN(C)CC#Cc1cc(C2CCCC2)c(O)cc1NC(=O)C1(C)CNc2cc(OC(F)(F)F)ccc2O1 (stereo not shown) [Compound 79] .
Result: > 100%

Request: Now consider O=C(Nc1cc(O)c(C2CCCC2)cc1F)C1CNc2ccc(F)cc2O1 (stereo not shown) [Compound 61] .
Result: 25 to 100%

Request: Now consider CC(C)(C)c1cc(C2CCCC2)c(O)cc1NC(=O)[C@@H]1CNc2cc(C#N)ccc2O1 [Compound 59] .
Result: 25 to 100%

Request: Now consider Cc1ccc(NC(=O)C2CNc3cc(OC(F)(F)F)ccc3O2)c(C#CCN2CCCCC2)c1 (stereo not shown) [Compound 71] .
Result: 25 to 100%

Request: Now consider Cc1cc(C2CCCC2)c(O)cc1NC(=O)C1CNc2cc(S(C)(=O)=O)ccc2O1 (stereo not shown) [Compound 72] .
Result: 25 to 100%

Request: Now consider CN1CCN(Cc2cc(C3CCCC3)c(O)cc2NC(=O)C2CNc3ccccc3O2)CC1 (stereo not shown) [Compound 52] .
Result: 25 to 100%

Request: Now consider Cc1cccc2c1OC(C(=O)Nc1ccc(C(C)(C)C)c(O)c1)CN2 (stereo not shown) [Compound 107] .
Result: 25 to 100%
